Target: CDK4/cyclin D3 (Homo sapiens)
Construct: purchased Carna Biosciences, Inc. QS S Assist CDK4/Cyclin D3_FP Kit
Sequence (P11802 whole entry): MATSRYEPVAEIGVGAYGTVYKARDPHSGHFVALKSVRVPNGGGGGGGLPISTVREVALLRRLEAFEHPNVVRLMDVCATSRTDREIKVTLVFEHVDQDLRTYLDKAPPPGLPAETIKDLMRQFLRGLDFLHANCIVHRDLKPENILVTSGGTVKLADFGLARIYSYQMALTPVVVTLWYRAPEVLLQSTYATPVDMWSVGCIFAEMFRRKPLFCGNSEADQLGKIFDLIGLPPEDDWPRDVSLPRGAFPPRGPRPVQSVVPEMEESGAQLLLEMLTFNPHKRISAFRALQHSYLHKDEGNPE
Sequence (P30281 whole entry partner): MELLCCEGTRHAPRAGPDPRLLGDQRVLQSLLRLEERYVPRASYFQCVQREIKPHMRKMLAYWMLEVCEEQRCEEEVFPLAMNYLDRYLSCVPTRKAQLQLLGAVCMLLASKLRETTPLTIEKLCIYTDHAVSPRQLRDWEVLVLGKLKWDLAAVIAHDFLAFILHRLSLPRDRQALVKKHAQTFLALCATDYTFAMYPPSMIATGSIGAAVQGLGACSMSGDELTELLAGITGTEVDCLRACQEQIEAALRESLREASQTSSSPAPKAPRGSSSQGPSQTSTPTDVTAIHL
Test: Human CDK4/cyclin D3 inhibitory activity (QS S Assist CDK4/Cyclin D3_FP Kit, IMAP fluorescence polarization)
Format: biochemical
Conditions: 50% inhibitory concentration against CDK4/cyclin D3, given as class symbol
Measured parameter: IC50

Some entries whose results are on file:
# lookup: IC50 of `CC(C)Nc1nc([C@@H](C)O)cc2cnc(Nc3ccc4c(n3)CCN(C(=O)CN(C)C)C4)nc12` < 10 nM

Requested read-out: IC50. Entry: `CC(C)Nc1nc([C@@H](C)O)cc2cnc(Nc3ccc(CN4CCN(CC#N)CC4)cn3)nc12` < 10 nM

Hi team, please reply with IC50 for each item in this list.
1. OCCN1CCc2nc(Nc3ncc4cc(C5CCOC5)nc(N[C@H]5CCCOC5)c4n3)ccc2C1 (stereo partly drawn)
2. Cc1cc(Nc2ncc3cc([C@@H](C)O)nc(NC(C)C)c3n2)ncc1CN1CCN(CCO)CC1
3. CC(C)Nc1nc(C2CCOC2)cc2cnc(Nc3ccc4c(n3)CCN(CCN(C)C)C4)nc12 (stereo not drawn)
4. C[C@@H](O)c1cc2cnc(Nc3ccc(CN4CCN(CCO)CC4)cn3)nc2c(NCC2CC2)n1
5. CCCNc1nc(C2(C)COC2)cc2cnc(Nc3ccc(N4CCNCC4)cn3)nc12
6. CC(C)Nc1nc(C2CCOC2)cc2cnc(Nc3ccc4c(n3)CCN(CC(=O)O)C4)nc12 (stereo not drawn)
7. C[C@@H](O)c1cc2cnc(Nc3ccc(CN4CCC(CO)CC4)cn3)nc2c(NC(C)(C)C)n1
8. CCNc1nc([C@@H](C)O)cc2cnc(Nc3ccc(CN4CCN(CCCO)CC4)cn3)nc12

["< 10 nM", "10 to 100 nM", "< 10 nM", "< 10 nM", "< 10 nM", "< 10 nM", "< 10 nM", "< 10 nM"]

Dear colleague, could you please provide IC50 for the compounds listed below?
1. CC(=O)c1cc2cnc(Nc3ccc(N4CCNCC4=O)cn3)nc2c(NC(C)C)n1
2. CCCNc1nc([C@@H](C)O)cc2cnc(Nc3ccc4c(n3)CCN(CCO)C4)nc12
3. CO[C@H](C)c1cc2cnc(Nc3ccc(CN4CCN(CCCC(=O)O)CC4)cn3)nc2c(NC(C)C)n1

1: < 10 nM; 2: 10 to 100 nM; 3: 10 to 100 nM

* * *

Molecular target: CDK4/cyclin D3 (Homo sapiens)
Construct: purchased Carna Biosciences, Inc. QS S Assist CDK4/Cyclin D3_FP Kit
Test: Human CDK4/cyclin D3 inhibitory activity (QS S Assist CDK4/Cyclin D3_FP Kit, IMAP fluorescence polarization)
Format: biochemical
Conditions: Human CDK4/cyclin D3 inhibitory activity; read-out: CDK4 Activity symbol
Measured parameter: IC50

Record excerpt, results attached:
What value of IC50 has been recorded for this entry: `CC(C)Nc1nc(C(F)F)cc2cnc(Nc3ccc(S(=O)(=O)CCCO)cn3)nc12` 10 to 100 nM

For the compound shown here, `CC(C)Nc1nc(C(F)F)cc2cnc(Nc3ccc(NC(=O)CO)cn3)nc12` , give the reported IC50. ≥ 100 nM

I'd like to know its IC50. The compound in question is `CC(C)Nc1nc([C@@H](C)O)cc2cnc(Nc3ccc(O[C@H]4CCNC[C@@H]4F)nn3)nc12` < 10 nM

Would you mind telling me what IC50 value was observed for `CO[C@H](C)c1cc2cnc(Nc3ccc(N4CC5(CCCNC5)C4)cn3)nc2c(NC(C)C)n1` ? < 10 nM

Requested read-out: IC50. Entry: COc1cccc(Nc2nc(C(C)OC)cc3cnc(Nc4ccc(CN5CCNCC5)cn4)nc23)c1 (centres unmarked) < 10 nM

For each of the items listed, what is its IC50?
1. COCC(C)(C)Nc1nc([C@@H](C)O)cc2cnc(Nc3ccc(CN4CCC(C(=O)O)CC4)cn3)nc12
2. COC(C)c1cc2cnc(Nc3ccc(CN4CCNCC4)cn3)nc2c(NC2CCC(C)(C)OC2)n1 (centres unmarked)
3. CO[C@H](C)c1cc2cnc(Nc3ccc(N4CCN(C(C)(C)C)CC4)nn3)nc2c(NC(C)C)n1

1. 10 to 100 nM
2. < 10 nM
3. 10 to 100 nM
